Target: T1, PUF4 RNA-binding domain (Saccharomyces cerevisiae, UniProt P25339 537-888)
T1 sequence: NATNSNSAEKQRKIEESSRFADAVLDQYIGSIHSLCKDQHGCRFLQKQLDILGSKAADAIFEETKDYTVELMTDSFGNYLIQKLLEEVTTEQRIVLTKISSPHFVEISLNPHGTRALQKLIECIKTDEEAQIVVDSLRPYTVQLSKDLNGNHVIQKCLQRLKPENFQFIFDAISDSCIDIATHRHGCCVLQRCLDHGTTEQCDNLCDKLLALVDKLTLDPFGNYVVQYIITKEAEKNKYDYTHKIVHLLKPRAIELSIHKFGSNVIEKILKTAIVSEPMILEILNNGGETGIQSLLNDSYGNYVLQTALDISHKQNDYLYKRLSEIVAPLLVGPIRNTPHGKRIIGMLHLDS
Test: Mg; RNA-MaP; 20 mM Na-HEPES pH 7.4, 30 mM KOAc, 0.75 mM MgCl2, 0.1% Tween-20, 5% glycerol, 0.1 mg/mL BSA, 2 mM DTT; 25 C; 0.0125-409.6 nM protein
Conditions: tags: N-His6-TEV cleaved; C-SNAP kept, Cy3B-labelled; label: tethered on chip by stalled RNA polymerase
Exercise: for every item that follows, state its recorded Kd.
# do not omit the unit; it follows the number

Sample records with Kd:
UCUCUUCAUAUAUAUUAUUUCUCUU (ssRNA) [Id_ii_S1_P4E.3_K4.2_C4.2_[T-1A]_H4.2_A4.1_F4.1_T4.2_[G10T]] | 21.2 nM
Ic_S2_P5E.1_K5.1_C5.1_H5.1_A5.1_[T6C]_F5.1_[T8A]_[A10G]_T5.1 (ssRNA) RNA: UUUGAUUAAUAUGAUAUCGUUCUUUCUUGUAUCAAUGUUCUUUCUCGAUAUCAUAUUAAUCUUU | 122 nM

Now for a further binder.
I am curious: what Kd value has been reported for UCUCUUUGUAUCGAUGUCUCUU (ssRNA) [Ic_S1_P5E.1_K5.1_C5.1_H5.1_A5.1_[T6C]_[A7G]_F5.1_[T8A]_[A10G]_T5.1] ?
859 nM
